Where do these numbers come from? They come from patent US20260232732A1.

experimental-system: T1, naked peptide 1b MEDYVNFNFTDFYCEKNNVRQFAS (human)
T1 construct: also called region amino acids 25 to 48
T1 peptide: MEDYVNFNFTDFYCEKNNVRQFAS
assay: ELISA naked 24-mer; repI
outcome-measure: OD450 (OD)

binder	outcome-measure	val
Comparative antibody 1 (Comp-1) scFv, SEQ ID NO: 10 from WO2023/037125 A1, His-tagged (scFv) scFv: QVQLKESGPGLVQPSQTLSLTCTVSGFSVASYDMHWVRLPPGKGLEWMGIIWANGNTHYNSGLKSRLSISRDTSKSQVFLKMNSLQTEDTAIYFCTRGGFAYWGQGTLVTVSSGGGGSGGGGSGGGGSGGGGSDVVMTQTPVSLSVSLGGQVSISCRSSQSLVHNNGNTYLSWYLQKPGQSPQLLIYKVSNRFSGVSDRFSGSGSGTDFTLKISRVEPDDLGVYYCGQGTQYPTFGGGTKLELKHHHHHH	OD450	0.09
Comparative antibody 3 (Comp-3) scFv, SR_92R (Somovilla-Crespo et al. 2018), His-tagged (scFv) scFv: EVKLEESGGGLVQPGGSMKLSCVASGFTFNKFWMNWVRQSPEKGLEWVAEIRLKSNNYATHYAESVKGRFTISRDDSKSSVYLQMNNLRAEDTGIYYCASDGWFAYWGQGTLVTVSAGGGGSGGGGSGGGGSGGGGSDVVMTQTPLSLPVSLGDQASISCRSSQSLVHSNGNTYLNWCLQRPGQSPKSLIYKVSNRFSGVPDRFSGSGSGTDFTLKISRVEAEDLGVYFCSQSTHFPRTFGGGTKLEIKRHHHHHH	OD450	0.11
CCR9_HUM2 scFv (humanized anti-CCR9 scFv, SEQ ID NO: 17 with C-terminal 6xHis tag) (scFv) scFv: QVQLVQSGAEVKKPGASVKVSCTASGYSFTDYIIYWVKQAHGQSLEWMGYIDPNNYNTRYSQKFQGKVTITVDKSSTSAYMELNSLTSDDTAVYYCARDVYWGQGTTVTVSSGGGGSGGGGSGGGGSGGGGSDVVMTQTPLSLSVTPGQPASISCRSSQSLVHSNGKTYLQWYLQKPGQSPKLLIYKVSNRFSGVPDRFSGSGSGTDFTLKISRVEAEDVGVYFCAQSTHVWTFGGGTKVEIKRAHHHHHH	OD450	2.22
Comparative antibody 2 (Comp-2) scFv, 243LO326 (VH SEQ ID NO: 51 and VL SEQ ID NO: 52 of WO 2022/195028 A2), His-tagged (scFv) scFv: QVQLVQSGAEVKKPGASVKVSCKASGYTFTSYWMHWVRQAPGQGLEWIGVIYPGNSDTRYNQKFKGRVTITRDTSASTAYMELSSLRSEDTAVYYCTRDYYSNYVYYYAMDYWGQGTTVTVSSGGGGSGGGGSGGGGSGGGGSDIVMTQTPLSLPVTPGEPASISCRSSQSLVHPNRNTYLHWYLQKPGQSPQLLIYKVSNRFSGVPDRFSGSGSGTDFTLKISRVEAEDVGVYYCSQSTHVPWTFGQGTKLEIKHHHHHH	OD450	1.97
